# Test system: PPARg DBDmut:RXRa IVT, anti-PPARg (DBD mutation: PPARg1 K132A/R137A, NR concentration 270 nM, RXRa partner concentration 90 nM)
# experiment_notes: PBM binding z-score (relative to random genomic background probes); higher = stronger binding; sequences stand for … in GC…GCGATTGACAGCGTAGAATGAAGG
property: PBM binding z-score

Previously resolved entries follow.
TCATATAGGTAAACAGGTGAAAGTGCGTAAGTTA 1.29
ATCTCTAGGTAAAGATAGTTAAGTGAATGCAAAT 0.229
AGAATGAGGTTAAGACCAGGGAAACAGAATACAT 1.4
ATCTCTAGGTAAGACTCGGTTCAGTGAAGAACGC 0.784
AGAACGAGGGCACGCTGAGTTGAGAGCAGAGTAG 0.22
ATCACTAGGTAACCAAGTTCAGTGAATGCCGAAC 1.62
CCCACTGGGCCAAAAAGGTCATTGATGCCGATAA -1.05
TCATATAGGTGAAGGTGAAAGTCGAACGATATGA 1.24

Next sequence, please.
// PBM binding z-score value for CATACAGGGTCAGCTACGCCAGAGTAGGGACGGC : 0.652

* * *

Parameter PBM binding z-score: see the listing below.
# Tested on: PXR:RXRa (NR concentration 270 nM, RXRa partner concentration 90 nM)
# experiment_notes: PBM binding z-score (relative to random genomic background probes); higher = stronger binding; sequences stand for … in GC…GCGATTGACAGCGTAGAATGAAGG
Please respond with just the number, no unit label.

Previously resolved entries follow.
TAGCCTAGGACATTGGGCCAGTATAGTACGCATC -0.674
ACAGACAGATGATGAAGGTAACTCAGGCTATCAT -0.0799
GCGACTGGGGCAAAGCAAGTTACCATAAGGTTGG -0.0344

// PBM binding z-score value for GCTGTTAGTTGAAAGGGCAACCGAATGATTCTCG : 0.665

// PBM binding z-score value for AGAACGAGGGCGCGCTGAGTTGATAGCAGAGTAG : 0.224

// PBM binding z-score value for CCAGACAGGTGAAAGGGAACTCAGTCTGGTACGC : -0.0959

// PBM binding z-score value for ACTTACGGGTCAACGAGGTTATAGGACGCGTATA : 5.08

// PBM binding z-score value for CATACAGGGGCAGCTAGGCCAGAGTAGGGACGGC : -0.802

// PBM binding z-score value for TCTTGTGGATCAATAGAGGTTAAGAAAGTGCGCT : 2.88

// PBM binding z-score value for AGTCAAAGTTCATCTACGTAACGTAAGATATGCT : 4.96

// PBM binding z-score value for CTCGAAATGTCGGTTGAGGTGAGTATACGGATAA : 0.0277

// PBM binding z-score value for GGAGACAGGTGAAACGCAGGTAACTCAGGGTGGC : -0.298

// PBM binding z-score value for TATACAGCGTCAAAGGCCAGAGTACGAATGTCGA : -0.442

// PBM binding z-score value for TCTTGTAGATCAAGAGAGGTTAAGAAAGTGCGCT : 2.95

// PBM binding z-score value for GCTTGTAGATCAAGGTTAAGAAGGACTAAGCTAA : 0.306

// PBM binding z-score value for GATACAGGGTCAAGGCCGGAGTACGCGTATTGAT : 3.56

// PBM binding z-score value for CCTACTGGGCCACGAAAGGTCATTTATTCAGTGA : 5.07

// PBM binding z-score value for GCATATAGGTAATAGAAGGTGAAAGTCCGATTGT : 0.246

// PBM binding z-score value for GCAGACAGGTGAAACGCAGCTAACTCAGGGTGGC : -0.921

// PBM binding z-score value for ACTAGCAGGCCAAGGGTCACTAAAGATTAGTCCG : 3

// PBM binding z-score value for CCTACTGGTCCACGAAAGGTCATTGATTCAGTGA : 5.53

// PBM binding z-score value for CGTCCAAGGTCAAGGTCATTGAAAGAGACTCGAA : 5.75

Provenance of the data: the supplement of paper PMC6555819
